# System: NCI-H522
# measurement-protocol: NCI tumour cell line growth inhibition, 48 h
The source made the active and inactive calls. Cut-off read from the data, not from the text of the source: active = GI50 up to about 1.1 µM and inactive = higher.
assay-endpoint: GI50

Examples from the recorded data:
>  <compound>
CN/N=C(\C)C(CN1CCCCC1)C(C1=C(O)c2ccccc2OC1)c1ccccc1 (stereo unspecified)

>  <tested-system>
NCI-H522

>  <GI50>
> 100 µM (inactive)

$$$$
>  <compound>
CSc1nc(C#N)c(N)n1C

>  <tested-system>
NCI-H522

>  <GI50>
> 100 µM (inactive)

$$$$
>  <compound>
Cc1c(OCc2cccc3ccccc23)ccc2c(=O)cc(SCCN3CCOCC3)oc12

>  <tested-system>
NCI-H522

>  <GI50>
90.6 µM (inactive)

$$$$
>  <compound>
CCCCCCCCC[C@@H]1C[C@@H]2CCC3C(C(=O)OC)=C(C)N=C(N1)N32 (stereo partly specified)

>  <tested-system>
NCI-H522

>  <GI50>
2.96 µM (inactive)

$$$$

Please give GI50, item by item, for the list that follows.
1. CCNc1ncnc2nn[nH]c12
2. COc1cc2c(cc1OC)C(Cl)C(c1ccc(Br)cc1)=C2Cl (stereo unspecified)
3. CCC1=CC2CN3Cn4c(c(COCc5c6n(c7ccccc57)CN5CC7C=C(CC)C5C6(C(=O)OC)C7)c5ccccc54)C(C(=O)OC)(C2)C13
4. COC(=O)C1=C(C(=O)OC)SC(=CC#CC=C2SC(C(=O)OC)=C(C(=O)OC)S2)S1
5. Cc1cc(C)c(C2CC(O)C(CO)O2)cc1C (stereo unspecified)
6. CCOC(=O)C1=C(C)NC(=O)NC1c1ccc(OC)cc1OC (stereo unspecified)

Reply |
> 100 µM (inactive)
4.42 µM (inactive)
> 100 µM (inactive)
24.4 µM (inactive)
> 100 µM (inactive)
> 100 µM (inactive)

Ask | Need GI50 of `Nc1ccccc1C(=O)CCc1c[nH]c2ccccc12` , thanks.
Reply | > 100 µM (inactive)

---

# Test system: HOP-92
# measurement-protocol: NCI tumour cell line growth inhibition, 48 h
The source made the active and inactive calls. Rule as the data show it: active = GI50 up to about 1.1 µM and inactive = higher.
assay-endpoint: GI50

>  <compound>
[O-][S+]1Nc2c(Cl)cc(Cl)c3c(Cl)cc(Cl)c(c23)N1

>  <GI50>
21.3 µM (inactive)

$$$$
>  <compound>
COc1ccc(-c2cc(=O)c3c(O)cc(C)cc3o2)cc1OC

>  <GI50>
22.8 µM (inactive)

$$$$
>  <compound>
Nc1n[n+]([O-])c2ccccc2[n+]1[O-]

>  <GI50>
29.7 µM (inactive)

$$$$
>  <compound>
CC(C)(C)OC(=O)NCC(CNC(=O)OC(C)(C)C)c1nc(C(N)=O)cs1

>  <GI50>
> 100 µM (inactive)

$$$$
>  <compound>
N#Cc1c(=O)c2cc([N+](=O)[O-])ccc2n2c1[nH]c1ccccc12

>  <GI50>
2.62 µM (inactive)

$$$$

I have 3 compounds here; please give me GI50 for each one.
1. O=C(O)CSCC(=O)Nc1ccc2cccc3c2c1CC3
2. COc1nc(OC)c2c(=O)oc(-c3ccccc3)cc2n1
3. CCOC(=O)C1=C(C)NC(=O)NC1c1ccc(OC)cc1OC (stereo unspecified)

Reply |
1. > 100 µM (inactive)
2. > 100 µM (inactive)
3. > 100 µM (inactive)

Record GI50 per entry; entries follow.
1. NC(=O)N/C=C1\C(=O)Oc2ccccc2C1=O
2. C=CCNC(=O)N(CCCC(NC(C)=O)C(=O)NCc1ccccc1)Cc1ccccc1 (stereo unspecified)
3. NC(Cc1ccccc1)P(=O)(O)O (stereo unspecified)

Reply |
["56.9 µM (inactive)", "83 µM (inactive)", "> 100 µM (inactive)"]
